Data provenance: patent US7906310B2

Experiment: Stability assay: residual activity after incubation with 1 mM inhibitor, measured by pNA assay
Assay type: physicochemical
Design: key: fraction of activity at 0 h incubation (0.80 = 80%)
Conditions: incubation time 18.6 hours; 1 mM Cu2+; 25° C., pH 7, 0.1% K-sorbate; relative to 0 hours
readout_type: Residual Enzyme Activity
API doc: respond with a numeric literal and nothing else, no unit.

Input: Quick one: Residual Enzyme Activity for Protease 10: known protease derived from Nocardiopsis sp. NRRL 18262, amino acids 1-188 of SEQ ID NO: 2 (protein) ADIIGGLAYTMGGRCSVGFAATNAAGQPGFVTAGHCGRVGTQVTIGNGRGVFEQSVFPGNDAAFVRGTSNFTLTNLVSRYNTGGYATVAGHNQAPIGSSVCRSGSTTGWHCGTIQARGQSVSYPEGTVTNMTRTTVCAEPGDSGGSYISGTQAQGVTSGGSGNCRTGGTTFYQEVTPMVNSWGVRLRT ?
Output: 0.868

Input: Could you do the same for Protease 35: protease from Nocardiopsis prasina DSM 15649, amino acids 1-188 of SEQ ID NO: 8 (protein, listed as Nocardiopsis prasina) ATGPLPQSPTPEADAVSMQEALQRDLGLTPLEADELLAAQDTAFEVDEAAAEAAGDAYGGSVFDTETLELTVLVTDSAAVEAVEATGAGTELVSYGITGLDEIVEELNAADAVPGVVGWYPDVAGDTVVLEVLEGSGADVGGLLADAGVDASAVEVTTTEQPELYADIIGGLAYTMGGRCSVGFAATN , please?
Output: 0.918
